# System: SNB-75
# test_method_notes: NCI tumour cell line growth inhibition, 48 h
Calls of active or inactive are those of the source. No stated cut-off is given here; in the data, active = GI50 up to about 1.1 µM and inactive = higher.
GI50 values by entry

>  <molecule>
O=C(CCC(NC(=O)OCc1ccccc1)C(=O)OCc1ccccc1)Nc1cccc(OCc2ccccc2)c1 (stereo unspecified)

>  <assayed_target>
SNB-75

>  <GI50>
35.6 µM (inactive)

$$$$
>  <molecule>
CN1CC[C@]2(C)c3cc(O)ccc3CC3CCCC1C32C (stereo partly specified)

>  <assayed_target>
SNB-75

>  <GI50>
92 µM (inactive)

$$$$
>  <molecule>
Cc1c(/N=N/c2ccccc2)c(C)n(C2OC(CO)C(O)C(O)C2O)c(=S)c1C#N (stereo unspecified)

>  <assayed_target>
SNB-75

>  <GI50>
42.2 µM (inactive)

$$$$
>  <molecule>
CC1=C2c3ccccc3N(C(=O)/C=C/C(=O)O)[C@H]2[C@H]2C(=O)OC(=O)[C@H]2C1

>  <assayed_target>
SNB-75

>  <GI50>
> 10 µM (inactive)

$$$$
>  <molecule>
O=c1[nH]cnc2c(COCCCO)c[nH]c12

>  <assayed_target>
SNB-75

>  <GI50>
> 100 µM (inactive)

$$$$
>  <molecule>
N#Cc1c(-c2ccc(Cl)cc2)c(C#N)c(=O)n(NS(=O)(=O)c2ccccc2)c1O

>  <assayed_target>
SNB-75

>  <GI50>
34 µM (inactive)

$$$$

###

# Test system: NCI-H23
# test_method_notes: NCI tumour cell line growth inhibition, 48 h
Active and inactive are the calls of the source. No stated cut-off is given here; in the data, active = GI50 up to about 1.1 µM and inactive = higher.
GI50 values by entry
reported_metric: GI50

>  <compound>
CC1OC1C(=O)P(=O)(O)O (stereo unspecified)

>  <readout_value>
> 100 µM (inactive)

$$$$
>  <compound>
O=P(O)(O)CC1OC(CO)C(O)C1O (stereo unspecified)

>  <readout_value>
> 100 µM (inactive)

$$$$
>  <compound>
Cc1ccc(OCC2OC(n3cnc4c(Br)nc(Br)nc43)CC2Oc2ccc(C)cc2)cc1 (stereo unspecified)

>  <readout_value>
4.55 µM (inactive)

$$$$
>  <compound>
COc1ccc(/C=C/c2cnc3ccccc3n2)cc1OC

>  <readout_value>
67.8 µM (inactive)

$$$$
>  <compound>
O=C(N/C(=C\c1ccc(Oc2ccc(Cl)c(Cl)c2)cc1)c1nc2ccccc2[nH]1)c1ccccc1

>  <readout_value>
13.3 µM (inactive)

$$$$
>  <compound>
CC(C)(C)OC(=O)N1CCC2(CC1)C(=O)NCN2c1ccccc1

>  <readout_value>
> 100 µM (inactive)

$$$$
>  <compound>
OC1C2CCC3C2CC(C(O)(c2ccccc2)c2ccccc2)C13 (stereo unspecified)

>  <readout_value>
44.5 µM (inactive)

$$$$
>  <compound>
Cc1c(/N=N/c2ccccc2)c(C)n(C2OC(CO)C(O)C(O)C2O)c(=S)c1C#N (stereo unspecified)

>  <readout_value>
27.3 µM (inactive)

$$$$
>  <compound>
OCCNCCN1CCN(CCCN2c3ccccc3Sc3ccc(C(F)(F)F)cc32)CC1

>  <readout_value>
27.2 µM (inactive)

$$$$
>  <compound>
CCc1nc2c(n1CC)C(=O)c1ccccc1C2=O

>  <readout_value>
46.8 µM (inactive)

$$$$
>  <compound>
CNC(C)Cc1ccccc1O (stereo unspecified)

>  <readout_value>
> 100 µM (inactive)

$$$$

###

# Test system: IGROV-1
# test_method_notes: NCI tumour cell line growth inhibition, 48 h
Activity calls are given as the source filed them. Cut-off read from the data, not from the text of the source: active = GI50 up to about 1.1 µM and inactive = higher.
Possible outcomes: active, inactive

>  <compound>
COc1ccc([C@H]2CC(=O)NCCCCN2)cc1

>  <discrete_label>
inactive

$$$$
>  <compound>
COc1ccc2nc3cc(Cl)ccc3c(NCCCCCC(=O)NC(COc3ccc4ccc5cccnc5c4n3)COc3ccc4ccc5cccnc5c4n3)c2c1

>  <discrete_label>
inactive

$$$$
>  <compound>
O=Cc1cc(O)ccc1Br

>  <discrete_label>
inactive

$$$$
>  <compound>
Oc1cc(O)c2c(c1)O[C@H](c1cc(O)c(O)c(O)c1)[C@H](O)C2 [EPIGALLOCATECHIN]

>  <discrete_label>
inactive

$$$$
>  <compound>
O=C1NC(c2cccc3ccccc23)Nc2ccccc21 (stereo not given)

>  <discrete_label>
active

$$$$
>  <compound>
Cc1cc(/N=C/c2c(CO)cnc(C)c2O)c(/N=C/c2c(CO)cnc(C)c2O)cc1C.[Zn+2]

>  <discrete_label>
inactive

$$$$
>  <compound>
Clc1cccc(/C=c2\nc(-c3ccccc3)n3c2nc2ccccc23)c1

>  <discrete_label>
inactive

$$$$
>  <compound>
CC1CC2(OC2C)C(=O)OC2CCN(C)C/C=C(/COC(=O)C1(C)O)C2=O (stereo not given)

>  <discrete_label>
inactive

$$$$
>  <compound>
COC(=O)C1=CO[C@@H](OC2OC(CO)C(O)C(O)C2O)[C@@H]2[C@H](C)[C@@H](O)[C@@H](O)[C@]12O (stereo not given in full)

>  <discrete_label>
inactive

$$$$
>  <compound>
CS/C(=N\C#N)S/C=C/C(=O)c1ccc(Cl)cc1

>  <discrete_label>
inactive

$$$$

###

# Test system: LOX IMVI
# test_method_notes: NCI tumour cell line growth inhibition, 48 h
Active and inactive are the calls of the source. No stated cut-off is given here; in the data, active = GI50 up to about 1.1 µM and inactive = higher.

>  <compound>
CC(C)CNc1nc2ncnc(N)c2[nH]1

>  <assayed_target>
LOX IMVI

>  <GI50>
> 100 µM (inactive)

$$$$
>  <compound>
CC(=O)OCCn1cnc2nc(Nc3ccccc3)nc(Cl)c21

>  <assayed_target>
LOX IMVI

>  <GI50>
44.4 µM (inactive)

$$$$
>  <compound>
CCCCCCC1NN(C(C)=O)C(CCCCCC)NN1C(C)=O (stereo unspecified)

>  <assayed_target>
LOX IMVI

>  <GI50>
19.9 µM (inactive)

$$$$
>  <compound>
COc1cc(OC)c(OC)cc1/C=N/N=C(\N)NO

>  <assayed_target>
LOX IMVI

>  <GI50>
> 100 µM (inactive)

$$$$
>  <compound>
Oc1cc(O)c2c(c1)O[C@H](c1cc(O)c(O)c(O)c1)[C@H](O)C2 [EPIGALLOCATECHIN]

>  <assayed_target>
LOX IMVI

>  <GI50>
27.9 µM (inactive)

$$$$
>  <compound>
CSC1=N/C(=C\c2c[nH]c3ccccc23)C(=O)N1

>  <assayed_target>
LOX IMVI

>  <GI50>
78.3 µM (inactive)

$$$$

###

# Test system: A549
# test_method_notes: NCI tumour cell line growth inhibition, 48 h
Calls of active or inactive are those of the source. No stated cut-off is given here; in the data, active = GI50 up to about 1.1 µM and inactive = higher. *1 amine or outer side, *2 acyl side, *3 side chain or, on linkers, in order; H or OH if unused. Where a SMILES comes first, the peptide text is derived from it. Bridges are numbered along the chain shown (N, C = ends). Roman numbers before positions name the chains, in order. [ ]: non-standard residue; d: D form. Actinocin(9to1) = Cc1c2oc3c(C)ccc(C(=O)[*:1])c3nc-2c(C(=O)[*:2])c(N)c1=O; NMeV = CN[CH](C(=O)O)C(C)C; Sar = CNCC(=O)O
Possible outcomes: active, inactive

>  <molecule>
CCCCCCCCOCC1S(=O)(=O)OCCOS1(=O)=O

>  <assayed_target>
A549

>  <discrete_label>
inactive

$$$$
>  <molecule>
NCc1ccc(C(=O)O)cc1 [AMINOMETHYLBENZOIC ACID]

>  <assayed_target>
A549

>  <discrete_label>
inactive

$$$$
>  <molecule>
COC(=O)C1C(O)CCC2CN3CCc4c([nH]c5ccccc45)C3CC21 (configuration not stated)

>  <assayed_target>
A549

>  <discrete_label>
inactive

$$$$
>  <molecule>
COc1ccc2c(c1)[n+]([O-])c(C(C)=O)c(C)[n+]2[O-]

>  <assayed_target>
A549

>  <discrete_label>
inactive

$$$$
>  <molecule>
O=C1O[C@H]2C3C4CCC(C4[C@@H]2I)[C@H]13 (some centres not stated)

>  <assayed_target>
A549

>  <discrete_label>
inactive

$$$$
>  <molecule>
Cc1c2oc3c(C)ccc(C(=O)NC4C(=O)NC(C(C)O)C(=O)N5CCCC5C(=O)N(C)CC(=O)N(C)C(C(C)C)C(=O)OC4C)c3nc-2c(C(=O)NC2C(=O)NC(C(C)O)C(=O)N3CCCC3C(=O)N(C)CC(=O)N(C)C(C(C)C)C(=O)OC2C)c(N)c1=O (configuration not stated) (I: TTP[Sar][NMeV] / II: TTP[Sar][NMeV]; ester I:1-I:C, II:1-II:C; linker I:N-II:N via Actinocin(9to1); configuration not given here)

>  <assayed_target>
A549

>  <discrete_label>
active

$$$$
>  <molecule>
O=c1/c(=C\c2ccccc2)sc2n1C(c1ccccc1)C1(O)CCCCC1N=2 (configuration not stated)

>  <assayed_target>
A549

>  <discrete_label>
inactive

$$$$
